test.protocol: Solubility limit in 1 M NaOH
Format: physicochemical
test.context: aqueous buffer
observable: solubility (mM)
Write it as a number; the unit mM goes unstated.

Using the record for O=S(=O)(O)c1ccc2nc3cc(O)c(O)cc3nc2c1 [DHPS, 7,8-dihydroxy-phenazine-2-sulfonic acid] , report its solubility.
1450
